Numbers sourced from paper PMC6781469.

target: UniProtKB P07333
Sequence (P07333 20-972): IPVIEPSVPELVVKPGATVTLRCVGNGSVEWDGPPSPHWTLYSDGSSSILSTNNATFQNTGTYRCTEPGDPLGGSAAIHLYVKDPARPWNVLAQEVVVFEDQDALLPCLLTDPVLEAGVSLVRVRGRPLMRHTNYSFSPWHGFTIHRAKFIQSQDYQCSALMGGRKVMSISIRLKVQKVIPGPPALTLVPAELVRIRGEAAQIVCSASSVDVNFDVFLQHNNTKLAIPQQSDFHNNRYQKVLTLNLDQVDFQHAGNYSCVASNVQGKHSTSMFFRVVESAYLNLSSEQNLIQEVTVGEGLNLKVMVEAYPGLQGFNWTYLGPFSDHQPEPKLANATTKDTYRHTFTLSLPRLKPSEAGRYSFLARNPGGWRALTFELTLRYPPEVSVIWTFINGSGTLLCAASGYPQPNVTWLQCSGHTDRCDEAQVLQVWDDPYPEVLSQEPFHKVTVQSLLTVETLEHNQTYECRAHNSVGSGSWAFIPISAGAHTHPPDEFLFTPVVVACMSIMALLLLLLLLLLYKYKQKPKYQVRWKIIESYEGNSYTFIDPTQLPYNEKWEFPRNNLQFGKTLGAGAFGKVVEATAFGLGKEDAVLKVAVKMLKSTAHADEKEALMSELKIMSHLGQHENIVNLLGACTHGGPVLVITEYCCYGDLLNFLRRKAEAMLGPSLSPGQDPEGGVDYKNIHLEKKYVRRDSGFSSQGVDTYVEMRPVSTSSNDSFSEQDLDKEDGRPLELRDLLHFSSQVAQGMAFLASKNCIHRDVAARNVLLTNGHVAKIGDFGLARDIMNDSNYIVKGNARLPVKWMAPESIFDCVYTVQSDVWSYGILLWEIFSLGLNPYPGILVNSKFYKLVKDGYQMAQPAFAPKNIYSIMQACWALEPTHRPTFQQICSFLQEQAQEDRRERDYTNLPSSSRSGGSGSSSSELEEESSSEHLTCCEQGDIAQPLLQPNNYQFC
pIC50: −log10 of the molar value.

CHEMICAL_STRUCTURE: Cc1oncc1C(=O)Nc1ccc2[nH]c(-c3cc(-n4cncc4C)cc(C(F)(F)F)c3)nc2c1
pIC50: 5.00

###

Target: FLT3(h) (Homo sapiens, UniProt P36888)
Sequence (P36888 27-993): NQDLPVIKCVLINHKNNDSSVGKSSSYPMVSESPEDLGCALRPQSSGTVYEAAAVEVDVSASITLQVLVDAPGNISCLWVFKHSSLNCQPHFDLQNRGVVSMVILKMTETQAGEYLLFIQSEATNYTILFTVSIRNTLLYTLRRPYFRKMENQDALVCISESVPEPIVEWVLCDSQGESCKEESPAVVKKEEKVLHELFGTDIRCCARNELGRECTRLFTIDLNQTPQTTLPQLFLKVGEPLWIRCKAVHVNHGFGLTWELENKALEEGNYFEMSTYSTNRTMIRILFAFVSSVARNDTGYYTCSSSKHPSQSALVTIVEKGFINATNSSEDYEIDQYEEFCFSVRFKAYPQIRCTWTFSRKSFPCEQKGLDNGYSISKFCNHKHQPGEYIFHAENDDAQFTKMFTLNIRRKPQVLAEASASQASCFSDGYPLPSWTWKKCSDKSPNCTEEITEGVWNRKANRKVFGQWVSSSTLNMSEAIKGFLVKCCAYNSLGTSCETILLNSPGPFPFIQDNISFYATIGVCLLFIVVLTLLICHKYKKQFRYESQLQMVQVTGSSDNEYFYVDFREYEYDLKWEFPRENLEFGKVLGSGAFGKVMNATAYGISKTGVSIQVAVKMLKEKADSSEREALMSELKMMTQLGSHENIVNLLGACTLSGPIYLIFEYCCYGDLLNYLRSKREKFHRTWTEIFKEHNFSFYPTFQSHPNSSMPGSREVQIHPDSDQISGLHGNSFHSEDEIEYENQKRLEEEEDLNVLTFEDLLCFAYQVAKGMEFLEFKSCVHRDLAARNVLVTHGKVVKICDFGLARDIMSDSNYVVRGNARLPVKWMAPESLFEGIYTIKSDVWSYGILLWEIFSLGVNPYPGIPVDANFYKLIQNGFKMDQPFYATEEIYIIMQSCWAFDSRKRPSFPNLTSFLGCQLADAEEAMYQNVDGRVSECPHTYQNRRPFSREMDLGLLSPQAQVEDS
Experiment: Reaction Biology Kinase HotSpot radiometric kinase assay, FLT3
So basically, if IC50 comes in under 2 µM it's 1.0, and if it's 2 µM or more it's 0.0.

CHEMICAL_STRUCTURE: Cc1oncc1C(=O)Nc1cccc2[nH]c(-c3cc(N4CCN(C)CC4)cc(C(F)(F)F)c3)nc12
MEASUREMENT_TARGET: FLT3(h) (Homo sapiens, UniProt P36888)
LABEL_CLASS: 0.0
--
CHEMICAL_STRUCTURE: Cc1oncc1C(=O)Nc1cccc2[nH]c(-c3ccc(N4CCOCC4)c(C(F)(F)F)c3)nc12
MEASUREMENT_TARGET: FLT3(h) (Homo sapiens, UniProt P36888)
LABEL_CLASS: 0.0
--
CHEMICAL_STRUCTURE: Cc1cn(-c2cc(-c3nc4cc(NC(=O)c5cnoc5C)ccc4[nH]3)cc(C(F)(F)F)c2)cn1
MEASUREMENT_TARGET: FLT3(h) (Homo sapiens, UniProt P36888)
LABEL_CLASS: 0.0
--
CHEMICAL_STRUCTURE: Cc1oncc1C(=O)Nc1ccc2[nH]c(-c3cc(-n4cncc4C)cc(C(F)(F)F)c3)nc2c1
MEASUREMENT_TARGET: FLT3(h) (Homo sapiens, UniProt P36888)
LABEL_CLASS: 1.0
--
CHEMICAL_STRUCTURE: Cc1oncc1C(=O)Nc1ccc2nc(-c3cc(N4CCN(C)CC4)cc(C(F)(F)F)c3)[nH]c2c1
MEASUREMENT_TARGET: FLT3(h) (Homo sapiens, UniProt P36888)
LABEL_CLASS: 1.0
--
CHEMICAL_STRUCTURE: Cc1cn(-c2cc(-c3nc4c(NC(=O)c5cnoc5C)cccc4[nH]3)cc(C(F)(F)F)c2)cn1
MEASUREMENT_TARGET: FLT3(h) (Homo sapiens, UniProt P36888)
LABEL_CLASS: 0.0
--
CHEMICAL_STRUCTURE: Cc1oncc1C(=O)Nc1ccc2[nH]c(-c3cc(-n4ccnc4C)cc(C(F)(F)F)c3)nc2c1
MEASUREMENT_TARGET: FLT3(h) (Homo sapiens, UniProt P36888)
LABEL_CLASS: 0.0
